Tested on: SK-OV-3
ASSAY_REMARKS: Cytotoxicity against human SKOV3 cells assessed as cellular growth at 10 uM by SRB assay
Format: functional
The reader will find reported Activity values listed item by item below.
Record the value in %, omitting the unit from your answer.

Completed entries (count: 5):
* Oc1ccccc1-c1nc(-c2cccs2)no1 | 99.86
* Cc1ccc(CNC(=O)c2[nH]c3ccccc3c2Cl)cc1 | 92.6
* Cc1ccc(C2=N/C(=C\c3ccccc3)C(=O)O2)cc1 | 109.52
* O=C(Nc1ccc2oc(=O)ccc2c1)c1ccc(-c2ccc(Cl)c(Cl)c2)o1 | 107.01
* COc1ccc(Cl)cc1C(=O)Nc1nc2ccc(Cl)cc2s1 | 91.86

Entry CC1(C)CC(=O)c2cc3c(N)c(C(=O)NCc4ccccc4)sc3nc2C1 under SK-OV-3 had Activity of 111.17

Entry COc1cc(/C=c2/sc3nc4ccccc4n3c2=O)cc(I)c1O under SK-OV-3 had Activity of 96.7

Entry N#Cc1ccc(NC(=O)c2sc3nc4c(cc3c2N)C(=O)CCC4)cc1 under SK-OV-3 had Activity of 106.21

Entry O=S(=O)(Oc1ccc(-c2cnc3ccccc3n2)cc1)c1ccc2ccccc2c1 under SK-OV-3 had Activity of 102.69

Entry CC1(C)CCc2cc(-c3ccn(S(=O)(=O)c4ccccc4Cl)n3)ccc2O1 under SK-OV-3 had Activity of 91.9

Entry COc1ccc(NC(=O)c2sc3nc4c(cc3c2N)C(=O)CCC4)cc1 under SK-OV-3 had Activity of 115.02

Entry Nc1c(C(=O)Nc2ccccc2)sc2nc3c(cc12)C(=O)CCC3 under SK-OV-3 had Activity of 19.71

Entry O=C(NCCc1ccccc1)c1cc2cccc([N+](=O)[O-])c2[nH]1 under SK-OV-3 had Activity of 91.43

Entry Clc1cccc(-c2nc(-c3cccs3)no2)c1 under SK-OV-3 had Activity of 99.21

Entry CC1(C)CC(=O)c2cc3c(N)c(C(=O)Nc4ccc(Cl)cc4)sc3nc2C1 under SK-OV-3 had Activity of 106.15

Entry Cc1ccc(NC(=O)c2sc3nc(-c4cccs4)ccc3c2N)cc1C under SK-OV-3 had Activity of 112.05

Entry O=C(NCc1ccc(Cl)cc1)c1[nH]c2ccccc2c1Cl under SK-OV-3 had Activity of 98.27

Entry Cc1ccc(S(=O)(=O)NC2=NC(=O)/C(=C\c3ccccc3)S2)cc1 under SK-OV-3 had Activity of 107.71

Entry Cc1ccc(Cl)cc1NC(=O)c1sc2nc3c(cc2c1N)C(=O)CCC3 under SK-OV-3 had Activity of 42.36

Entry Cc1cccc(-c2nc(-c3cccs3)no2)c1 under SK-OV-3 had Activity of 94.86
